Tested on: LNCaP xenografts
Assay protocol: Ex vivo biodistribution and blocking studies in mice bearing LNCaP xenografts
Experimental context: 1 h after injection, unblocked
blood uptake for assorted molecules
Reply with the number, then its unit.

Some solved cases for reference:
# Molecule, Target under test, Readout kind, Measured
data = [
    ("C[N+](C)(Cc1cn(CC(=O)NCCOCCOCCC(=O)N[C@@H](Cc2ccc3ccccc3c2)C(=O)NCCCC[C@H](NC(=O)N[C@@H](CCC(=O)O)C(=O)O)C(=O)O)nn1)C[B-](F)(F)F [^18F-7]", "LNCaP xenografts", "blood uptake", "0.13 ± 0.08 %ID/g"),
    ("O=C(O)CC[C@H](NC(=O)N[C@@H](CCCCNC(=O)c1ccc(Cn2cc(C[n+]3ccc([B-](F)(F)F)cc3)nn2)nc1)C(=O)O)C(=O)O [^18F-4]", "LNCaP xenografts", "blood uptake", "0.74 ± 0.15 %ID/g"),
]

Problem: Any idea what blood uptake was measured for C[N+](C)(Cc1cn(Cc2ccc(C(=O)NCCCC[C@H](NC(=O)N[C@@H](CCC(=O)O)C(=O)O)C(=O)O)cn2)nn1)C[B-](F)(F)F [^18F-3] ?
Solution: 0.50 ± 0.16 %ID/g

Problem: Any idea what blood uptake was measured for C[N+](C)(Cc1cn(CC(=O)NC[C@H]2CC[C@H](C(=O)N[C@@H](Cc3ccc4ccccc4c3)C(=O)NCCCC[C@H](NC(=O)N[C@@H](CCC(=O)O)C(=O)O)C(=O)O)CC2)nn1)C[B-](F)(F)F [^18F-5] ?
Solution: 0.89 ± 0.42 %ID/g

---

Tested on: LNCaP xenografts
Assay protocol: Ex vivo biodistribution and blocking studies in mice bearing LNCaP xenografts
Experimental context: 1 h blocked (coinjection of DCFPyL 0.5 mg)
Satisfied means recorded blood uptake is 0.5 %ID/g or above; Not satisfied means it is below 0.5 %ID/g.

# Compound, Group label
measured = [
    ("C[N+](C)(Cc1cn(CC(=O)NCCOCCOCCC(=O)N[C@@H](Cc2ccc3ccccc3c2)C(=O)NCCCC[C@H](NC(=O)N[C@@H](CCC(=O)O)C(=O)O)C(=O)O)nn1)C[B-](F)(F)F [^18F-7]", "Satisfied"),
    ("C[N+](C)(Cc1cn(CC(=O)NC[C@H]2CC[C@H](C(=O)N[C@@H](Cc3ccc4ccccc4c3)C(=O)NCCCC[C@H](NC(=O)N[C@@H](CCC(=O)O)C(=O)O)C(=O)O)CC2)nn1)C[B-](F)(F)F [^18F-5]", "Not satisfied"),
    ("C[N+](C)(Cc1cn(Cc2ccc(C(=O)NCCCC[C@H](NC(=O)N[C@@H](CCC(=O)O)C(=O)O)C(=O)O)cc2)nn1)C[B-](F)(F)F [^18F-2]", "Not satisfied"),
    ("C[N+](C)(Cc1cn(Cc2ccc(C(=O)NCCCC[C@H](NC(=O)N[C@@H](CCC(=O)O)C(=O)O)C(=O)O)cn2)nn1)C[B-](F)(F)F [^18F-3]", "Not satisfied"),
]

From here, focus on the item given below.
Problem: API: above_or_equal(metric=blood uptake, cutoff=0.5 %ID/g) for item O=C(O)CC[C@H](NC(=O)N[C@@H](CCCCNC(=O)[C@H](Cc1ccc2ccccc2c1)NC(=O)[C@H]1CC[C@H](CNC(=O)Cn2cc(C[n+]3ccc([B-](F)(F)F)cc3)nn2)CC1)C(=O)O)C(=O)O [^18F-6]
Solution: Satisfied

---

Test system: LNCaP xenografts
Assay protocol: Ex vivo biodistribution and blocking studies in mice bearing LNCaP xenografts
Experimental context: 1 h after injection, unblocked
Procedure: Imaging and biodistribution experiments were performed using NODSCID IL2RγKO male mice. […] For biodistribution and blocking studies, the mice were injected with 1–3 MBq of radiotracer. […] Blood was withdrawn by cardiac puncture, and the organs and tissues of interest were collected, weighed, and counted using an automatic γ-counter (PerkinElmer). Uptake values were expressed as the percentage of the injected dose per gram of tissue (%ID/g). […]
Readout kind: bone uptake (%ID/g)
Dear colleague, please return just the value in %ID/g, with no unit written.

Some solved cases for reference:
# Molecule, Measured
data = [
    ("O=C(O)CC[C@H](NC(=O)N[C@@H](CCCCNC(=O)[C@H](Cc1ccc2ccccc2c1)NC(=O)[C@H]1CC[C@H](CNC(=O)Cn2cc(C[n+]3ccc([B-](F)(F)F)cc3)nn2)CC1)C(=O)O)C(=O)O [^18F-6]", 0.56),
    ("C[N+](C)(Cc1cn(CC(=O)N[C@@H](CCC(=O)O)C(=O)NCCCC[C@H](NC(=O)[C@H](CCC(=O)O)NC(=O)Cn2cc(C[N+](C)(C)C[B-](F)(F)F)nn2)C(=O)NC[C@H]2CC[C@H](C(=O)N[C@@H](Cc3ccc4ccccc4c3)C(=O)NCCCC[C@H](NC(=O)N[C@@H](CCC(=O)O)C(=O)O)C(=O)O)CC2)nn1)C[B-](F)(F)F [^18F-8]", 0.25),
]

// below: bone uptake requested for another molecule
Problem: Which bone uptake is reported with LNCaP xenografts for this entry: O=C(O)CC[C@H](NC(=O)N[C@@H](CCCCNC(=O)c1ccc(Cn2cc(C[n+]3ccc([B-](F)(F)F)cc3)nn2)nc1)C(=O)O)C(=O)O [^18F-4] ?
Solution: 0.76

---

System: LNCaP xenografts
Assay protocol: Ex vivo biodistribution and blocking studies in mice bearing LNCaP xenografts
Experimental context: 1 h after injection, unblocked
kidney uptake for assorted compounds
Dear colleague, please return just the value in %ID/g, with no unit written.

Some solved cases for reference:
# Compound, Target under test, Display unit, Measured
measured = [
    ("C[N+](C)(Cc1cn(Cc2ccc(C(=O)NCCCC[C@H](NC(=O)N[C@@H](CCC(=O)O)C(=O)O)C(=O)O)cc2)nn1)C[B-](F)(F)F [^18F-2]", "LNCaP xenografts", "%ID/g", 71.70),
    ("C[N+](C)(Cc1cn(CC(=O)NC[C@H]2CC[C@H](C(=O)N[C@@H](Cc3ccc4ccccc4c3)C(=O)NCCCC[C@H](NC(=O)N[C@@H](CCC(=O)O)C(=O)O)C(=O)O)CC2)nn1)C[B-](F)(F)F [^18F-5]", "LNCaP xenografts", "%ID/g", 73.86),
    ("C[N+](C)(Cc1ccc(C(=O)NCCCC[C@H](NC(=O)N[C@@H](CCC(=O)O)C(=O)O)C(=O)O)cc1)C[B-](F)(F)F [^18F-1]", "LNCaP xenografts", "%ID/g", 114.00),
    ("C[N+](C)(Cc1cn(CC(=O)NCCOCCOCCC(=O)N[C@@H](Cc2ccc3ccccc3c2)C(=O)NCCCC[C@H](NC(=O)N[C@@H](CCC(=O)O)C(=O)O)C(=O)O)nn1)C[B-](F)(F)F [^18F-7]", "LNCaP xenografts", "%ID/g", 20.35),
]

Problem: Any idea what kidney uptake was measured for O=C(O)CC[C@H](NC(=O)N[C@@H](CCCCNC(=O)c1ccc(Cn2cc(C[n+]3ccc([B-](F)(F)F)cc3)nn2)nc1)C(=O)O)C(=O)O [^18F-4] ?
Solution: 164.33

---

System: LNCaP xenografts
Assay protocol: Ex vivo biodistribution and blocking studies in mice bearing LNCaP xenografts
Experimental context: 1 h blocked (coinjection of DCFPyL 0.5 mg)
YES means recorded liver uptake is 1 %ID/g or above; NO means it is below 1 %ID/g.

# Compound, Group label
rows = [
    ("C[N+](C)(Cc1ccc(C(=O)NCCCC[C@H](NC(=O)N[C@@H](CCC(=O)O)C(=O)O)C(=O)O)cc1)C[B-](F)(F)F [^18F-1]", "YES"),
]

Problem: API: above_or_equal(metric=liver uptake, cutoff=1 %ID/g) for item O=C(O)CC[C@H](NC(=O)N[C@@H](CCCCNC(=O)[C@H](Cc1ccc2ccccc2c1)NC(=O)[C@H]1CC[C@H](CNC(=O)Cn2cc(C[n+]3ccc([B-](F)(F)F)cc3)nn2)CC1)C(=O)O)C(=O)O [^18F-6]
Solution: NO

Problem: API: above_or_equal(metric=liver uptake, cutoff=1 %ID/g) for item C[N+](C)(Cc1cn(CC(=O)NCCOCCOCCC(=O)N[C@@H](Cc2ccc3ccccc3c2)C(=O)NCCCC[C@H](NC(=O)N[C@@H](CCC(=O)O)C(=O)O)C(=O)O)nn1)C[B-](F)(F)F [^18F-7]
Solution: NO

Problem: API: above_or_equal(metric=liver uptake, cutoff=1 %ID/g) for item C[N+](C)(Cc1cn(CC(=O)NC[C@H]2CC[C@H](C(=O)N[C@@H](Cc3ccc4ccccc4c3)C(=O)NCCCC[C@H](NC(=O)N[C@@H](CCC(=O)O)C(=O)O)C(=O)O)CC2)nn1)C[B-](F)(F)F [^18F-5]
Solution: NO

Problem: API: above_or_equal(metric=liver uptake, cutoff=1 %ID/g) for item C[N+](C)(Cc1cn(Cc2ccc(C(=O)NCCCC[C@H](NC(=O)N[C@@H](CCC(=O)O)C(=O)O)C(=O)O)cn2)nn1)C[B-](F)(F)F [^18F-3]
Solution: YES

Problem: API: above_or_equal(metric=liver uptake, cutoff=1 %ID/g) for item O=C(O)CC[C@H](NC(=O)N[C@@H](CCCCNC(=O)c1ccc(Cn2cc(C[n+]3ccc([B-](F)(F)F)cc3)nn2)nc1)C(=O)O)C(=O)O [^18F-4]
Solution: NO

Problem: API: above_or_equal(metric=liver uptake, cutoff=1 %ID/g) for item C[N+](C)(Cc1cn(Cc2ccc(C(=O)NCCCC[C@H](NC(=O)N[C@@H](CCC(=O)O)C(=O)O)C(=O)O)cc2)nn1)C[B-](F)(F)F [^18F-2]
Solution: YES

Problem: API: above_or_equal(metric=liver uptake, cutoff=1 %ID/g) for item C[N+](C)(Cc1cn(CC(=O)N[C@@H](CCC(=O)O)C(=O)NCCCC[C@H](NC(=O)[C@H](CCC(=O)O)NC(=O)Cn2cc(C[N+](C)(C)C[B-](F)(F)F)nn2)C(=O)NC[C@H]2CC[C@H](C(=O)N[C@@H](Cc3ccc4ccccc4c3)C(=O)NCCCC[C@H](NC(=O)N[C@@H](CCC(=O)O)C(=O)O)C(=O)O)CC2)nn1)C[B-](F)(F)F [^18F-8]
Solution: NO
